The values you see were collected from ChEMBL document CHEMBL5370608.

assayTarget: Protein deacetylase HDAC6 (Homo sapiens, UniProt Q9UBN7)
Sequence (Q9UBN7 whole entry): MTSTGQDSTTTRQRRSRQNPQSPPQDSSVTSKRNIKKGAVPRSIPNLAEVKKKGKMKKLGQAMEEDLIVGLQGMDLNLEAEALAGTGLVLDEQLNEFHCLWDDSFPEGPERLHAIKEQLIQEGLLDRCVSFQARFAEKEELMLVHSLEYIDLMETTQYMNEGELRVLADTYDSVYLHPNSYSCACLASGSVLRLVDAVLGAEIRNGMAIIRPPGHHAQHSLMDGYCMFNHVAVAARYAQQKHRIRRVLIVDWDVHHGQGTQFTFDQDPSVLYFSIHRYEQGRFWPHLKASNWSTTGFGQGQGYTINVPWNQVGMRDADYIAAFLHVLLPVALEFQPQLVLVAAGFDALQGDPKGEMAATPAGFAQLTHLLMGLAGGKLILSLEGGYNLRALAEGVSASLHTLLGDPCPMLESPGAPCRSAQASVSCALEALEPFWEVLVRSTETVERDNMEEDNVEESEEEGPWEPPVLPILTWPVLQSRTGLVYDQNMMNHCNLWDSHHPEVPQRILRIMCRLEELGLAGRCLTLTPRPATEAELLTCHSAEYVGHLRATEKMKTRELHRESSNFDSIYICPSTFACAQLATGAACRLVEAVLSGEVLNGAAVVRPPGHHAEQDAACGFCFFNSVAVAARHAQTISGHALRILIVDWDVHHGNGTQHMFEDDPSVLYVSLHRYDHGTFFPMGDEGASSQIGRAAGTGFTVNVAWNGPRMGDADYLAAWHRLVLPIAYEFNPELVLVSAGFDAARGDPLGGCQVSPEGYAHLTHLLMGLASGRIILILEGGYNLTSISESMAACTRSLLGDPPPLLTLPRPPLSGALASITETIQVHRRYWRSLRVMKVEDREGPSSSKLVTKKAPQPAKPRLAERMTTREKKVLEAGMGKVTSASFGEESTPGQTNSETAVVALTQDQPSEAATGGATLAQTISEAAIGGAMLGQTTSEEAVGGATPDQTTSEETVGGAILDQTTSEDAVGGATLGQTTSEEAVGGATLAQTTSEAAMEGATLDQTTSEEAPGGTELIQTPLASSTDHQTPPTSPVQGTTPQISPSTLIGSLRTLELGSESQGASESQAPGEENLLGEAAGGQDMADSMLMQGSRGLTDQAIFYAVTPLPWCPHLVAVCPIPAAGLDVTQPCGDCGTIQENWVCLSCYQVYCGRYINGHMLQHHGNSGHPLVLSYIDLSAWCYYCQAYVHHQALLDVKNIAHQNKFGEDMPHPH
experiment: Inhibition of HDAC6 (unknown origin) incubated for 30 mins
measure: IC50 (nM)
Record the value in nM, omitting the unit from your answer.

**Q:** Reported IC50 for FC(F)c1nnc(-c2ccc(Cn3nnc(-c4ccccn4)n3)nc2)o1 : what is it?
**A:** 27

---

assayTarget: Protein deacetylase HDAC6 (Homo sapiens, UniProt Q9UBN7)
experiment: Inhibition of human recombinant HDAC6 incubated for 30 mins by fluorimetry analysis
Form field: IC50 (one value per entry).
A number alone suffices; assume µM.

**Q:** Given the entry CS(=O)(=O)NCC(Nc1ncc(-c2nnc(C(F)F)o2)cn1)c1ccc(OC(F)(F)F)cc1 (centres undefined) , report its measured IC50.
**A:** 0.58

**Q:** Would you kindly share the measured IC50 for COc1ccccc1-c1nnn(Cc2ccc(-c3nnc(C(F)F)o3)cn2)n1 ?
**A:** 0.17

**Q:** Give the measured IC50 of FC(F)c1nnc(-c2ccc(Cn3nnc(-c4ccccn4)n3)nc2)o1 .
**A:** 0.19

---

assayTarget: Histone deacetylase 3 (Homo sapiens)
Sequence (O15379 whole entry): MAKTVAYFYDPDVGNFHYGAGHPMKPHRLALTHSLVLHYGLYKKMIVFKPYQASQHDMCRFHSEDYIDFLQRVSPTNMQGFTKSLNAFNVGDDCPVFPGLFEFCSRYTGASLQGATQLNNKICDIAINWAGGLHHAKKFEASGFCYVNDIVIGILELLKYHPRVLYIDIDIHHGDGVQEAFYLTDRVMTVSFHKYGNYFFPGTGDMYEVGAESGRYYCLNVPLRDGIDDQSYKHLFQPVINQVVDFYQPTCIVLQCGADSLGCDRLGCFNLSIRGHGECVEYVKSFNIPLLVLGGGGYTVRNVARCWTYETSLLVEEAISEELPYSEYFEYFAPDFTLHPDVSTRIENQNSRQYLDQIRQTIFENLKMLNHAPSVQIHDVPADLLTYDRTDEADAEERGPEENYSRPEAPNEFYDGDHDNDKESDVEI
experiment: Inhibition of human recombinant HDAC3 incubated for 10 mins by Spectrophotometric analysis
pIC50: −log10 of the molar value.
measure: pIC50

# compound, assayTarget, pIC50
measured = [
    ("O=C(NO)c1cnc(NC2(c3ccccc3)CCC(F)(F)CC2)nc1", "Histone deacetylase 3 (Homo sapiens)", 4.06),
    ("CS(=O)(=O)NCC(Nc1ncc(-c2nnc(C(F)F)o2)cn1)c1ccc(OC(F)(F)F)cc1 (centres undefined)", "Histone deacetylase 3 (Homo sapiens)", "< 4.00"),
    ("FC(F)c1nnc(-c2ccc(Cn3nnc(-c4ccccn4)n3)nc2)o1", "Histone deacetylase 3 (Homo sapiens)", "< 4.00"),
]

**Q:** Form field - read-out: pIC50; system: Histone deacetylase 3 (Homo sapiens); submitted item: COc1ccccc1-c1nnn(Cc2ccc(-c3nnc(C(F)F)o3)cn2)n1
**A:** < 4.00

---

assayTarget: Protein deacetylase HDAC6 (Homo sapiens)
experiment: Inhibition of HDAC6 in human BEAS-2B cells assessed as deacetylation of acetylated alpha-tubulin level incubated for 24 hrs by Western blot analysis
Assay type: cell-based
measure: EC50 (nM)
# value in nM; strip the unit string

Some solved cases for reference:
# smilesString, readingUnit, recordedResult
rows = [
    ("COc1ccccc1-c1nnn(Cc2ccc(-c3nnc(C(F)F)o3)cn2)n1", "nM", 316),
    ("FC(F)c1nnc(-c2ccc(Cn3nnc(-c4ccccn4)n3)nc2)o1", "nM", 251),
    ("FC(F)c1nnc(-c2ccc(Cn3nnc(-c4ccccc4)n3)nc2)o1", "nM", 316),
]

Please look at the following compound next.
**Q:** Would you kindly share the measured EC50 for FC(F)c1nnc(-c2cnc(NC3(c4ccccc4)CCC(F)(F)CC3)nc2)o1 ?
**A:** 631

---

assayTarget: Protein deacetylase HDAC6 (Homo sapiens, UniProt Q9UBN7)
experiment: Inhibition of full length TEV-cleavable N-terminal His6-tagged human recombinant HDAC6 using Ac-RGK (Ac)-AMC as substrate preincubated for 20 hrs followed by substrate addition and measured after 3 hrs by microplate reader analysis
pIC50: −log10 of the molar value.
measure: pIC50

Recorded results for 2 compounds are shown here.
# smilesString, pIC50
records = [
    ("COc1cccc(CNC(=O)c2csc(-c3nnn(Cc4ccc(-c5nnc(C)o5)cc4)n3)c2)c1", "< 4.00"),
    ("O=C(NO)c1cc(F)c(Cn2nnc(-c3ccccn3)n2)c(F)c1", "> 9.50"),
]

**Q:** Recorded pIC50 of FC(F)c1nnc(-c2ccc(Cn3nnc(-c4ccccn4)n3)cn2)o1 , please.
**A:** < 5.00

---

Listed below: IC50 values for each entry.
Test system: THP-1
experiment: Cytotoxicity against human THP-1 cells assessed as reduction in cell viability by alamar blue staining based assay
Format: functional
conditionDescription: read-out: pIC50 (converted)

These solved cases illustrate the format of a correct answer.
# smilesString, IC50
measured = [
    ("O=C(NO)c1cc(F)c(Cn2nnc(-c3ccccn3)n2)c(F)c1", "63.1 µM"),
    ("CNC(=O)c1csc(-c2nnn(Cc3ccc(-c4nnc(C(F)F)o4)cc3)n2)c1", "> 251 µM"),
    ("FC(F)c1nnc(-c2ccc(Cn3nnc(-c4ccccn4)n3)nc2)o1", "> 251 µM"),
    ("FC(F)c1nnc(-c2cnc(NC3(c4ccccc4)CCC(F)(F)CC3)nc2)o1", "158 µM"),
    ("Fc1cc(-c2nnc(C(F)F)o2)cc(F)c1Cn1nnc(-c2ccccn2)n1", "> 251 µM"),
    ("O=C(NO)c1cnc(NC2(c3ccccc3)CCC(F)(F)CC2)nc1", "100 µM"),
    ("FC(F)c1nnc(-c2ccc(Cn3nnc(-c4ccccn4)n3)cc2)o1", "> 251 µM"),
]

Now consider the entry below.
**Q:** Entry FC(F)c1nnc(-c2ccc(Cn3nnnc3-c3ccccn3)cc2)o1 : reported IC50 = ?
**A:** > 251 µM

---

assayTarget: Protein deacetylase HDAC6 (Homo sapiens)
Sequence (Q9UBN7 whole entry): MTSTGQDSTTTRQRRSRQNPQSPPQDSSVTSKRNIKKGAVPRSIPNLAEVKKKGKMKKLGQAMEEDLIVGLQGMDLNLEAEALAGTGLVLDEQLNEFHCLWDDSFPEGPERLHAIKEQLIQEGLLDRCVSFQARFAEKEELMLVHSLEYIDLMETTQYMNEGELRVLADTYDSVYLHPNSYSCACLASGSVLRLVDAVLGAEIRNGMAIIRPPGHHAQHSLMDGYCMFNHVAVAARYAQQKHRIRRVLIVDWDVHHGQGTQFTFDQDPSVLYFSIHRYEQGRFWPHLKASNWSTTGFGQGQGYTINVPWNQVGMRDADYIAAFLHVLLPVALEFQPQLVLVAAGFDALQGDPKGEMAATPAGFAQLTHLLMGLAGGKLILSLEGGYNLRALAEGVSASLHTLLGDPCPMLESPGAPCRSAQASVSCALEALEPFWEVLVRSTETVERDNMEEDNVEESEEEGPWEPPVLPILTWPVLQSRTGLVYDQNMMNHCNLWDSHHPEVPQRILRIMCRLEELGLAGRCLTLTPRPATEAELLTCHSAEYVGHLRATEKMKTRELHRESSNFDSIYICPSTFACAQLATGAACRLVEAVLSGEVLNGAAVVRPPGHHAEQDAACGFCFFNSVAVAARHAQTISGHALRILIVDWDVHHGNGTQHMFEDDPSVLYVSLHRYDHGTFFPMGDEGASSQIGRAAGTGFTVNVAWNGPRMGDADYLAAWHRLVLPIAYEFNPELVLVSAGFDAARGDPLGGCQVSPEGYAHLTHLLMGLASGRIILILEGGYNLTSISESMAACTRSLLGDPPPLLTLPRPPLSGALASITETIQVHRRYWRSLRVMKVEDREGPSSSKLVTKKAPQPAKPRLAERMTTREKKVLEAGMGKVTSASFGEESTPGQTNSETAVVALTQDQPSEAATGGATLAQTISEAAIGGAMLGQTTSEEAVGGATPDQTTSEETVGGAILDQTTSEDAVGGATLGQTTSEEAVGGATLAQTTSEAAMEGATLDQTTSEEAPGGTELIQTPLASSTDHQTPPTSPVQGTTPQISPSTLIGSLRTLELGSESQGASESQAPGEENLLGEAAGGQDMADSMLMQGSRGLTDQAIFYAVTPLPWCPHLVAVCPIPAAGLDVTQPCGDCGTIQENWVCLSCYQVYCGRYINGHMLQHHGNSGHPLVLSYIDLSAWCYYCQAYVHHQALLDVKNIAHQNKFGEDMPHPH
experiment: Inhibition of HDAC6 in human BEAS-2B cells assessed as deacetylation of acetylated alpha-tubulin level incubated for 24 hrs by Western blot analysis
Reported values of pEC50 for individual entries
Bear in mind: pEC50 is minus log10 of a mol/L concentration; give just that figure.

# smilesString, pEC50
measured = [
    ("FC(F)c1nnc(-c2ccc(Cn3nnc(-c4ccccn4)n3)cc2)o1", 5.50),
    ("FC(F)c1nnc(-c2ccc(Cn3nnc(-c4cccnc4)n3)nc2)o1", 6.00),
]

**Q:** Param item = FC(F)c1nnc(-c2ccc(Cn3nnc(-c4cccc(Cl)c4)n3)nc2)o1 ; retrieve measured pEC50.
**A:** 6.20
